Test: Plasma protein binding, rat
Assay type: in vitro ADME
Conditions: 37° C., one range given for rat, dog and human, read-out: bound to plasma proteins
Metric: fraction unbound

INSERT INTO assay_data (compound_smiles, recorded_measurement) VALUES
  ('N[C@H]1C=C(C(=O)O)CC1=C(F)F', '0.8 to 0.96');

---

Test: Pharmacokinetics after oral administration in dog
Type: in vivo
Conditions: in vivo; dog, oral administration; read-out: elimination half-life (t½)
Metric: half-life

INSERT INTO results (compound_smiles, metric, recorded_measurement) VALUES
  ('N[C@H]1C=C(C(=O)O)CC1=C(F)F', 'half-life', '1.25 to 1.5 h');

---

Assay: Clearance in human hepatocytes
Assay type: in vitro ADME
Conditions: read-out: intrinsic clearance (CIint)
Metric: CLint scaled (mL/min/kg)

INSERT INTO assay_data (compound_smiles, metric, recorded_measurement) VALUES
  ('N[C@H]1C=C(C(=O)O)CC1=C(F)F', 'CLint scaled', 13.1);

---

Assay: Plasma protein binding, human
Assay type: in vitro ADME
Settings: 37° C., one range given for rat, dog and human, read-out: bound to plasma proteins
Metric: fraction unbound

INSERT INTO results (compound_smiles, metric, recorded_measurement) VALUES
  ('N[C@H]1C=C(C(=O)O)CC1=C(F)F', 'fraction unbound', '0.8 to 0.96');

---

Experiment: Clearance in dog hepatocytes
Assay type: in vitro ADME
Settings: read-out: intrinsic clearance (CIint)
Metric: CLint scaled (mL/min/kg)

INSERT INTO assay_data (compound_smiles, recorded_measurement) VALUES
  ('N[C@H]1C=C(C(=O)O)CC1=C(F)F', 8.97);

---

Assay: Pharmacokinetics after oral administration in rat
Conditions: in vivo, read-out: elimination half-life (t½)
Metric: half-life

INSERT INTO assay_data (compound_smiles, recorded_measurement) VALUES
  ('N[C@H]1C=C(C(=O)O)CC1=C(F)F', '1.25 to 1.5 h');

---

Experiment: Plasma protein binding, dog
Type: in vitro ADME
Settings: 37° C., one range given for rat, dog and human, read-out: bound to plasma proteins
Metric: fraction unbound

INSERT INTO assay_data (compound_smiles, metric, recorded_measurement) VALUES
  ('N[C@H]1C=C(C(=O)O)CC1=C(F)F', 'fraction unbound', '0.8 to 0.96');

Where do these numbers come from? They come from patent US20240009160A1.
